B1: glmS ribozyme (parent)
chain: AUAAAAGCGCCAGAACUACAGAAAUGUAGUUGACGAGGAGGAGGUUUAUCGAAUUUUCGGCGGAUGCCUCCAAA

Variants of: B1
Experiment: self-cleavage kobs at 10000 uM GlcN6P; higher = faster cleavage; RNA array
Conditions: with glucosamine-6-phosphate
This sample holds only a part of the variants without activity.
Please use TRUE whenever self-cleavage kobs at 10000 uM GlcN6P is not below 0.0002 s⁻¹, and FALSE whenever it is.

AUAAAAGCGCCAGAACUACAGAAAUGUAGUAGACGAGGAGGAGGUUGGUCGAAUUUUCGGCGGAUGCCUCCAAA [U31A U47G A48G]: FALSE
AUAAAAGCGCCAGAACUACAGAAAUGUAGUUGACGAGGAUAUGGUUUAUCGAAGUUUCGUCGGAUGCCUCUAAA [G40U G41A A42U U54G G60U C71U]: FALSE
AUAAAAGCGCCUGAACUACAGAAAUGUAGUUGACGAGGAGGAGAUUUAUCGAAUUUUCGGCGGAUGCCUCCAAA [A12U G44A]: TRUE
AUAAAAGCGCCAGAACUACAGAAAUGUAUUUGACGAGGAGGAGGUAUAUCGAAUUUUCGGCGGAUGCCUCCAAA [G29U U46A]: TRUE
AUAAAAACGCCAGAACUACAGAAAUGUAGUUAACGAGGAGGAGGUUUAUCGAAUUUUAGGCGGAUGCCUCCAAA [G7A G32A C58A]: FALSE
AUAAAAGCGCCAGAACUACAGAAAUGUAGUCGACGAGGAGGAGGUUUAUCCAAUUUUCGGCGGAUGCCUCCAAA [U31C G51C]: FALSE
AUAAAAGCGCCAGAAUUACAGAAAUGUAGUUGACGAGGAGGAGGUUUAUCGAUUUUUCGGCGGAGGCCUCCAAA [C16U A53U U65G]: TRUE
AUAAAAGCGCCAGAACUACAGAAAUGUAGUUGACGAGGAGGAGGUUUAUCGAAUAUUUGGCGGACGCCUCCAAA [U55A C58U U65C]: FALSE

Would you say AUAAAAGCGCCAGUACUACAGAAAUGUAGGUGACGAGGAGGAGGUUUAUCGAAUUUUCGGCGGAUGCCUCCAAA [A14U U30G] shows self-cleavage kobs at 10000 uM GlcN6P at minimum 0.0002 s⁻¹?
TRUE

Would you say AUAAAAGCACCAGGACUACAGAAAUGUAGUUGACGAGGAGGAGGUUUAUCGAAUUUUCGGCGGAUGCCUCCAAA [G9A A14G] shows self-cleavage kobs at 10000 uM GlcN6P at minimum 0.0002 s⁻¹?
FALSE

Would you say AUAAAAGCGCCAAAACUACAGAAAUGUAGUUGACGCGUAGGAGGUUUAUCGAAUUUUCGGCGGAUGCCUCCAAA [G13A A36C G38U] shows self-cleavage kobs at 10000 uM GlcN6P at minimum 0.0002 s⁻¹?
FALSE

Would you say AUAAAAGCGCCAGAACUACAGAAAUGUAGUUGACGAAGAGGAGGUUCAUCGAAUUUUCGGCGGAUGCCUCCAAA [G37A U47C] shows self-cleavage kobs at 10000 uM GlcN6P at minimum 0.0002 s⁻¹?
TRUE

Would you say AUAAAAGCGCCAGAACUACAGAAAUGUAGUUCACGACGAGGAGGUUUAUCGAAUUUUCGGCGGAUGCCUCCAAA [G32C G37C] shows self-cleavage kobs at 10000 uM GlcN6P at minimum 0.0002 s⁻¹?
FALSE

Would you say AUAAAAGCGCCAGAACUACAGAAAUGUAGUUGACGAGGAGGAGGUUUAUCGAAGUUUCUGCGGAUGCCUCUAAA [U54G G59U C71U] shows self-cleavage kobs at 10000 uM GlcN6P at minimum 0.0002 s⁻¹?
FALSE
